Entries and their Fluorescence Intensity Geomean (normalized to background)
target: T1, human CD1a expressed on cells (human, UniProt P06126 17-327; P61769 21-119); assay: flow cytometry, MOLT4 cells, 1 µg/ml antibody
T1 construct: also called HEK - CD1a; C1R - CD1a

A selection of reference data follows.
>>> experimental_value("116 (VR12117) (antibody, V domains shown, also called OX116) VH: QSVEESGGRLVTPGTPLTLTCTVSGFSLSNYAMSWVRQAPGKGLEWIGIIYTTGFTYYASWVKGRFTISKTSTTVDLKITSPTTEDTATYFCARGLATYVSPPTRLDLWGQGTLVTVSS VL: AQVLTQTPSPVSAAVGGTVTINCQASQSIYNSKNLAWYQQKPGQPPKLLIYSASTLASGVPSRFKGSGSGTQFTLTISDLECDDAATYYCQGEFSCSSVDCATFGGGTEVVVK")
"30.6 fold over background"
>>> experimental_value("16 (VR11834) (antibody, V domains shown, also called OX16; antibody 16) VH: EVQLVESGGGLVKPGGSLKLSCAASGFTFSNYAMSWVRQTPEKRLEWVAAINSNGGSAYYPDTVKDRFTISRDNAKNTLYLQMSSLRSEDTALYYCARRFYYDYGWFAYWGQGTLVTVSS VL: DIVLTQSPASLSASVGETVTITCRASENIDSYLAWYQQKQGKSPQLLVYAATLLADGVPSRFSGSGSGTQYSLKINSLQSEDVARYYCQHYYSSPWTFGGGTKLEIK")
"15 fold over background"
>>> experimental_value("111 (VR12113) (antibody, V domains shown, also called OX111) VH: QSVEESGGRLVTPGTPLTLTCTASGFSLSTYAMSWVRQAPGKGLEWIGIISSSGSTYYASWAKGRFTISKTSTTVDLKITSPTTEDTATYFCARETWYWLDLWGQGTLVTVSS VL: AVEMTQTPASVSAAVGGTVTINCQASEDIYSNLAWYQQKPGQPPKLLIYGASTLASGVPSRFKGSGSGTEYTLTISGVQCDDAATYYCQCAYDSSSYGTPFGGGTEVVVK")
"31.2 fold over background"
>>> experimental_value("110 (VR12112) (antibody, V domains shown, also called OX110; antibody 110) VH: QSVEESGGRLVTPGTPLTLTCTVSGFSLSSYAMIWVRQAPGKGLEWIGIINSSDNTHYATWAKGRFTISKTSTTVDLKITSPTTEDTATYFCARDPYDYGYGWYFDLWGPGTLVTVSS VL: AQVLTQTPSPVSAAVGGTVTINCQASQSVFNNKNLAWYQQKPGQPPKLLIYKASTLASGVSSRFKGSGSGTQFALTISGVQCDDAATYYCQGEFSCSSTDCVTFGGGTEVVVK")
"33 fold over background"

Please turn your attention to the following entry.
Request: Fluorescence Intensity Geomean (normalized to background) lookup needed for 77A (VR11851) (antibody, V domains shown, also called OX77a; antibody 77a) VH: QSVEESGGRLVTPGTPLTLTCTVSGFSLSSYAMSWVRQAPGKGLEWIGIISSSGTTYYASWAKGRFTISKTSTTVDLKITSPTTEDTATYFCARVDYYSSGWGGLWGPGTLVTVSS VL: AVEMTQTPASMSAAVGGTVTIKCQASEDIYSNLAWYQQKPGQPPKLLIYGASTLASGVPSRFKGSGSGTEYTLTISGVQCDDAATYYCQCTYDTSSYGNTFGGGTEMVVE , thanks.
Result: 13.5 fold over background
